System: Matricaria inodora
method.notes: Pre-emergence herbicidal action
Format: in vivo
setup.conditions: 320 g/ha, scored after about 3 weeks, 100% = plants have died, 0% = like control plants
Field: herbicidal activity on Matricaria inodora (visual rating vs untreated controls). Provide a value for each of the compounds that follow.
Quick reminder: number only, in %, skip the unit.

Endpoint output: herbicidal activity on Matricaria inodora (visual rating vs untreated controls) of `Cc1nn(C)c(-c2ccc(F)cc2Cl)c1C(=O)Nc1cccnc1F` . Value?
100

Looking for the measured herbicidal activity on Matricaria inodora (visual rating vs untreated controls) of `Cc1nn(C)c(-c2ccc(F)cc2Cl)c1C(=O)Nc1cccc(F)c1` , can you help?
100

Item `Cc1nn(C)c(-c2ccc(F)cc2Cl)c1C(=O)Nc1ccccc1F` has what recorded herbicidal activity on Matricaria inodora (visual rating vs untreated controls)?
90

I am curious: what herbicidal activity on Matricaria inodora (visual rating vs untreated controls) value has been reported for `Cc1cccc(Cl)c1NC(=O)c1c(C)nn(C)c1-c1ccc(F)cc1Cl` ?
100

Item under review: `Cc1nn(C)c(-c2ccc(F)cc2Cl)c1C(=O)Nc1c(F)cc(F)cc1F` . Reported herbicidal activity on Matricaria inodora (visual rating vs untreated controls)?
100

What herbicidal activity on Matricaria inodora (visual rating vs untreated controls) value was documented for this compound, `Cc1cccc(NC(=O)c2c(C)nn(C)c2-c2ccc(F)cc2Cl)c1C` ?
100

// query herbicidal activity on Matricaria inodora (visual rating vs untreated controls) value for entry `Cc1nn(C)c(-c2ccc(F)cc2Cl)c1C(=O)Nc1cc(F)ccc1F`
90

Please give the measured herbicidal activity on Matricaria inodora (visual rating vs untreated controls) for this compound: `Cc1nn(C)c(-c2ccc(F)cc2Cl)c1C(=O)Nc1ccccc1`
100

If you can, please state the reported herbicidal activity on Matricaria inodora (visual rating vs untreated controls) value of `Cc1nn(C)c(-c2ccc(F)cc2Cl)c1C(=O)Nc1c(Cl)cccc1Cl` .
100

---

System: Veronica persica
method.notes: Post-emergence herbicidal action
Type: in vivo
setup.conditions: 320 g/ha, rated after about 3 weeks, 100% = plants have died, 0% = like control plants
Please respond with reported herbicidal activity on Veronica persica (visual rating vs untreated controls) for every item in the list.

Bench note: what herbicidal activity on Veronica persica (visual rating vs untreated controls) did `Cc1nn(C)c(-c2cc(F)ccc2Cl)c1C(=O)Nc1cccc(Cl)c1` show?
100%

Give its herbicidal activity on Veronica persica (visual rating vs untreated controls) value. Item: `Cc1nn(C)c(-c2ccc(F)cc2Cl)c1C(=O)Nc1ccccc1Cl`
100%

What value of herbicidal activity on Veronica persica (visual rating vs untreated controls) has been reported for the following molecule? `Cc1cccc(NC(=O)c2c(C)nn(C)c2-c2ccc(F)cc2Cl)c1`
100%

Can you look up the measured herbicidal activity on Veronica persica (visual rating vs untreated controls) of Cc1nn(C)c(-c2ccc(F)cc2Cl)c1C(=O)Nc1cccc2c1C(C)OC2(C)C (centres unmarked) for me?
100%

Param item = `Cc1nn(C)c(-c2ccc(F)cc2Cl)c1C(=O)Nc1cc(F)ccc1F` ; retrieve measured herbicidal activity on Veronica persica (visual rating vs untreated controls).
80%

---

Task for the reader: assign each of the following molecules its reported herbicidal activity on Viola tricolor (visual rating vs untreated controls).
Tested on: Viola tricolor
method.notes: Post-emergence herbicidal action
Type: in vivo
setup.conditions: 320 g/ha, rated after about 3 weeks, 100% = plants have died, 0% = like control plants
Number first, unit second: that is the form wanted.

Value lookup for herbicidal activity on Viola tricolor (visual rating vs untreated controls); key = `Cc1cccc(Cl)c1NC(=O)c1c(C)nn(C)c1-c1ccc(F)cc1Cl`
100%

Look up herbicidal activity on Viola tricolor (visual rating vs untreated controls): `Cc1nn(C)c(-c2ccc(F)cc2Cl)c1C(=O)Nc1cncc(F)c1`
100%

Returns the measured herbicidal activity on Viola tricolor (visual rating vs untreated controls) for the input molecule. Input: `Cc1nn(C)c(-c2ccc(F)cc2Cl)c1C(=O)Nc1ccc(Cl)cc1`
100%

Name the recorded herbicidal activity on Viola tricolor (visual rating vs untreated controls) for `Cc1nn(C)c(-c2ccc(F)cc2Cl)c1C(=O)Nc1ccccc1F` .
100%

May I ask what herbicidal activity on Viola tricolor (visual rating vs untreated controls) has been recorded for `Cc1ccc(Cl)cc1NC(=O)c1c(C)nn(C)c1-c1ccc(F)cc1Cl` ?
100%

herbicidal activity on Viola tricolor (visual rating vs untreated controls) lookup needed for `Cc1nn(C)c(-c2ccc(F)cc2)c1C(=O)Nc1c(Cl)cccc1Cl` , thanks.
80%
